Task for the reader: assign each of the following molecules its reported Iodine content of salt.
Experiment: Iodine content of salt
Type: physicochemical
Answers are plain numbers, in %.

Some molecules with known Iodine content of salt results, for comparison:
INSERT INTO measurements (molecule, assay_value) VALUES
  ('CNC(=O)c1c(I)c(NC(C)=O)c(I)c(C(=O)O)c1I [Megl. Iothalamate]', 47),
  ('CC(=O)Nc1c(I)c(NC(C)=O)c(I)c(C(=O)O)c1I [Megl. Amidotrizoate]', 47),
  ('CNC(=O)c1c(I)c(NC(C)=O)c(I)c(C(=O)O)c1I [Na-Iothalamate]', 60),
  ('CN(CC(O)CO)C(=O)c1c(I)c(NC(=O)CN)c(I)c(C(=O)N(C)CC(O)CO)c1I (centres unmarked) [B-Amidotrizoate]', 54);

Next molecule, Iodine content of salt to be filled in.
# Iodine content of salt lookup, item NCC(=O)Nc1c(I)c(C(=O)NCCO)c(I)c(C(=O)NCCO)c1I [A-Iothalamate] 58

====

Test system: Rat (100 g)
Assay: LD50 rat, intravenous injection
Format: in vivo
Details: solution 300 mg iodine/ml, injection rate 2 ml/min
Provide the recorded LD50 Rat (100 g) g iodine/kg for the entries that follow.
One number for each entry, in g iodine/kg.

INSERT INTO measurements (compound, uom, assay_value) VALUES
  ('CNC(=O)c1c(I)c(NC(C)=O)c(I)c(C(=O)O)c1I [Megl. Iothalamate]', 'g iodine/kg', 7.4),
  ('CNC(=O)c1c(I)c(NC(C)=O)c(I)c(C(=O)O)c1I [Na-Iothalamate]', 'g iodine/kg', 7.0);

Next item in the queue.
LD50 Rat (100 g) g iodine/kg for CC(=O)Nc1c(I)c(NC(C)=O)c(I)c(C(=O)O)c1I [Megl. Amidotrizoate] ? 7.5

====

Experiment: Viscosity of solution with 300 mg iodine/ml, 37° C.
Format: physicochemical
Label key: TRUE means Viscosity of solution with 300 mg iodine/ml, 37° C. in centipoises under 5 centipoises; FALSE means Viscosity of solution with 300 mg iodine/ml, 37° C. in centipoises of 5 centipoises or more.

Examples with answers:
INSERT INTO assay_data (compound, cat) VALUES
  ('NCC(=O)Nc1c(I)c(C(=O)NCCO)c(I)c(C(=O)NCCO)c1I [A-Iothalamate]', 'TRUE'),
  ('CNC(=O)c1c(I)c(NC(C)=O)c(I)c(C(=O)O)c1I [Na-Iothalamate]', 'TRUE'),
  ('CN(CC(O)CO)C(=O)c1c(I)c(NC(=O)CN)c(I)c(C(=O)N(C)CC(O)CO)c1I (centres unmarked) [B-Amidotrizoate]', 'TRUE');

Switching to the query record.
# check: Viscosity of solution with 300 mg iodine/ml, 37° C. in centipoises < 5 centipoises for CNC(=O)c1c(I)c(NC(C)=O)c(I)c(C(=O)O)c1I [Megl. Iothalamate] FALSE

====

Experiment: Molarity (and thus osmotic pressure) of solution with 300 mg iodine
Assay type: physicochemical
Settings: 300 mg iodine/ml
Parameter measured: Molarity of solution with 300 mg iodine (mol/L)
Answers are plain numbers, in mol/L.

Here is how some molecules turned out for Molarity of solution with 300 mg iodine.
INSERT INTO results (molecule, assay_value) VALUES
  ('CNC(=O)c1c(I)c(NC(C)=O)c(I)c(C(=O)O)c1I [Na-Iothalamate]', 0.787),
  ('CNC(=O)c1c(I)c(NC(C)=O)c(I)c(C(=O)O)c1I [Megl. Iothalamate]', 0.787),
  ('CC(=O)Nc1c(I)c(NC(C)=O)c(I)c(C(=O)O)c1I [Megl. Amidotrizoate]', 0.787),
  ('NCC(=O)Nc1c(I)c(C(=O)NCCO)c(I)c(C(=O)NCCO)c1I [A-Iothalamate]', 0.394);

Then this molecule:
Query: Molarity of solution with 300 mg iodine; subject: CN(CC(O)CO)C(=O)c1c(I)c(NC(=O)CN)c(I)c(C(=O)N(C)CC(O)CO)c1I (centres unmarked) [B-Amidotrizoate] 0.394
